Reported phosphorylation enrichment values follow for various sequences
System: c-Abl (mouse);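 also: 11-residue human phosphosite peptides and single-mutation variants displayed on the E. coli surface, counted by deep sequencing, each peptide's frequency after selection divided by its frequency in the unselected input library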;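 also: frequency after pTyr selection over input frequency; kinase dosed for 20-30% of maximal phosphorylation in three min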
Experiment: phosphorylation enrichment, bacterial display (enrichment ratio); higher = better substrate or ligand; peptides without Tyr show the background
Answer with a bare number; do not write a unit.

Below, 5 sequences whose answers are already recorded.
residue_sequence="IDQDKYAVRFI [FLNA_Y2388]" observation_type="phosphorylation enrichment" test_value=0.566
residue_sequence="RGKDSYETSKL [SPP1_Y225_Q229K]" observation_type="phosphorylation enrichment" test_value=1.49
residue_sequence="GRGMPYGGRGD [TGM1_Y312_R307G]" observation_type="phosphorylation enrichment" test_value=0.513
residue_sequence="RAEAQYLLVSN [LRIG1_Y1054]" observation_type="phosphorylation enrichment" test_value=0.665
residue_sequence="DLDPNYVVSSR [CKM_Y125_L127V]" observation_type="phosphorylation enrichment" test_value=0.713

Ask: May I ask what phosphorylation enrichment has been recorded for RAMRRYLERGE [ERBB3_Y680] ?
Reply: 0.615

Ask: May I ask what phosphorylation enrichment has been recorded for LFMGDYVGRGY [PPP2CA_Y86_D88G] ?
Reply: 0.953

Ask: May I ask what phosphorylation enrichment has been recorded for NGTVTYAIIAG [CDH23_Y1672_V1675I] ?
Reply: 0.892

Ask: May I ask what phosphorylation enrichment has been recorded for GGSDCYGSLRP [MYLK_Y846_R845C] ?
Reply: 0.746

Ask: May I ask what phosphorylation enrichment has been recorded for YRASYYRRGDR [LTK_Y677] ?
Reply: 0.693

Ask: May I ask what phosphorylation enrichment has been recorded for CTTNHYNYMCN [TP53_Y234_I232N] ?
Reply: 0.495

Ask: May I ask what phosphorylation enrichment has been recorded for PIYEGYGLPHA [ACTA1_Y171_A172G] ?
Reply: 12.7

Ask: May I ask what phosphorylation enrichment has been recorded for IGSHAYGDQYR [IDH1_Y135_R132S] ?
Reply: 0.576

Ask: May I ask what phosphorylation enrichment has been recorded for AHADEYGAEAL [HBA1_Y25_G23D] ?
Reply: 0.791

Ask: May I ask what phosphorylation enrichment has been recorded for NFRRGYHLQVL [CD200R1L_Y138_H135R] ?
Reply: 0.486

Ask: May I ask what phosphorylation enrichment has been recorded for TIQIMYGCDVG [HLA-A_Y123] ?
Reply: 1.18
